# Tested on: staphylococcus aureus76
# test: Curative effect on mouse with abdominal infection (ED50)
# Format: in vivo, staphylococcus aureus
# applied conditions: Staphylococcus, AUREUS76, 168 h, staphylococcus aureus76, challenging dose 5.8 × 10^4 CFU/0.5 ml, deaths in 7 days, Bliss, read-out: ED50
value type: ED50 (mg/kg)
// note: answer is a bare numeric in mg/kg

Please review the entries below; each comes with its answer.
CC[C@H]1OC(=O)[C@H](C)[C@@H](O[C@H]2C[C@@](C)(OC)[C@@H](O)[C@H](C)O2)[C@H](C)[C@@H](O[C@@H]2O[C@H](C)C[C@H](N(C)C)[C@H]2O)[C@](C)(O)C[C@@H](C)CN(C)[C@H](C)[C@@H](O)[C@]1(C)O [azithromycin, reference compound] :: 58.8
COC1C(O)CC(=O)OC(C)C/C=C/C=C/C(OC2CCC(N(C)C)C(C)O2)C(C)CC(CC=O)C1OC1OC(C)C(OC2CC(C)(O)C(OC(=O)CC(C)C)C(C)O2)C(N(C)C)C1O (centres unmarked) [Levoisovalerylspiramycin I, levoisovalerylspiramycin I] :: 24.4
CCC(=O)OC1CC(=O)OC(C)C/C=C/C=C/C(OC2CCC(N(C)C)C(C)O2)C(C)CC(CC=O)C(OC2OC(C)C(OC3CC(C)(O)C(OC(=O)CC(C)C)C(C)O3)C(N(C)C)C2O)C1OC (centres unmarked) [Levoisovalerylspiramycin III, levoisovalerylspiramycin III] :: 22.3

Request: Quick one: ED50 for COC1C(OC(C)=O)CC(=O)OC(C)C/C=C/C=C/C(OC2CCC(N(C)C)C(C)O2)C(C)CC(CC=O)C1OC1OC(C)C(OC2CC(C)(O)C(OC(=O)CC(C)C)C(C)O2)C(N(C)C)C1O (centres unmarked) [Levoisovalerylspiramycin II, levoisovalerylspiramycin II] ?
Result: 22.3

Request: Quick one: ED50 for CC[C@H]1OC(=O)[C@H](C)[C@@H](O[C@H]2C[C@@](C)(OC)[C@@H](O)[C@H](C)O2)[C@H](C)[C@@H](O[C@@H]2O[C@H](C)C[C@H](N(C)C)[C@H]2O)[C@](C)(O)C[C@@H](C)C(=O)[C@H](C)[C@@H](O)[C@]1(C)O [erythrocin, reference compound] ?
Result: 64.2
